system: NCI-H522 lung; assay: NCI tumour cell line growth inhibition, 48 h; in the data active = GI50 below about 0.43 µM; inactive = the rest
Respond using exactly one of the listed classes: active, inactive

For this molecule, state the assay outcome: CC1c2ccccc2CCN1c1ccc(CO)c(Cl)c1 (centres undefined) inactive

For this molecule, state the assay outcome: CCN1C(=O)N(CC)C2C1NN=c1s/c(=C\c3ccc(F)cc3)c(=O)n12 (centres undefined) active

For this molecule, state the assay outcome: `CCOC(=O)c1cc2c(cc1Cl)SC(=Nc1ccccc1)N(S(=O)(=O)c1ccc(Br)s1)S2(=O)=O` inactive

For this molecule, state the assay outcome: `FC(F)(F)c1cccc(-c2nn3ncccc3c2-c2ccnc(Nc3ccc4c(c3)OCCO4)n2)c1` inactive

For this molecule, state the assay outcome: C[C@@H]1Cc2cc(O)ccc2[C@H]2CC[C@]3(C)/C(=C/COCCN(C)C)CC[C@H]3[C@H]12 (tested in a mixture with another compound) active

For this molecule, state the assay outcome: `CCC(=O)Nc1ccc(N2C(=O)/C(=C/c3ccc(OC)cc3)N=C2c2ccccc2)cc1` inactive

For this molecule, state the assay outcome: `c1cc(N2CCN(c3ccc(C4=NCCCN4)cc3)CC2)ccc1C1=NCCCN1` inactive

For this molecule, state the assay outcome: `O=Nc1c(-c2c(O)[nH]c3ncccc23)[nH]c2ccccc12` inactive

For this molecule, state the assay outcome: `COc1cc(C(=O)Nc2cc(O)c(CC=C(C)C)c(O)c2)cc2c1O[C@]1(C)CC[C@@H](O)C(C)(C)[C@H]1C2` inactive

For this molecule, state the assay outcome: `Oc1c(-c2cc(C(F)(F)F)[nH]n2)cc(Cl)c(OCc2ccc(Cl)cc2)c1-c1ccc(Cl)c(C(F)(F)F)c1` active

For this molecule, state the assay outcome: N/C(=N\OC(=O)c1ccccc1)C(Cc1ccccc1)C(=O)NOC(=O)c1ccccc1 (centres undefined) inactive

For this molecule, state the assay outcome: `COc1cc2ncc3c(nc4sccn43)c2cc1OC` inactive

For this molecule, state the assay outcome: `COc1ccc2c(c1)C(=O)c1c-2c(OCCN(C)C)nc2ccccc12` inactive

For this molecule, state the assay outcome: `COc1cc2cc(Oc3ccc(NC(=O)c4ccc(Cl)c(Cl)c4)cc3)c(C)nc2cc1OC` inactive

###

test system: U251 CNS
Respond using exactly one of the listed classes: active, inactive

For this compound, state the assay outcome: CSc1ccc(C2=NN(C(C)=O)C(c3ccc(-c4ccc(Cl)cc4)o3)C2)cc1 (stereo unspecified) inactive

For this compound, state the assay outcome: `COc1cccc(Oc2ccccc2NC(=O)CNC(=O)c2cccc3ccccc23)c1` active

For this compound, state the assay outcome: `O=C(CN1N=C(c2ccc(F)cc2)CCC1=O)Nc1nc2ccccc2s1` inactive

For this compound, state the assay outcome: `O=Nc1c(-c2c(O)[nH]c3ncccc23)[nH]c2ccccc12` inactive

For this compound, state the assay outcome: `Cc1ccncc1C(N)=O` inactive

For this compound, state the assay outcome: `COC(=O)c1cc(-c2ccc(OC)c(OC)c2)[nH]c1N/N=C/c1c(Cl)cccc1Cl` inactive

###

test system: IGROV1 ovarian; test: NCI tumour cell line growth inhibition, 48 h
propertyName: GI50

Looking up `C[n+]1c2ccccc2nc2c(N)cc(N)cc21` , I see its GI50 listed as 14.4 µM

Looking up `COc1cc2cc(Oc3ccc(NC(=O)c4ccc(Cl)c(Cl)c4)cc3)c(C)nc2cc1OC` , I see its GI50 listed as > 100 µM

Looking up `c1cc(N2CCN(c3ccc(C4=NCCCN4)cc3)CC2)ccc1C1=NCCCN1` , I see its GI50 listed as > 100 µM

Looking up `COc1cccc(Oc2ccccc2NC(=O)CNC(=O)c2cccc3ccccc23)c1` , I see its GI50 listed as 1.04 µM

Looking up `COc1ccc(/C=C(\C)[N+](=O)[O-])cc1OC` , I see its GI50 listed as 2.16 µM

Looking up `Cc1ccncc1C(N)=O` , I see its GI50 listed as > 100 µM
